Target: hMT1 (Homo sapiens, UniProt P48039)
Sequence (P48039 whole entry): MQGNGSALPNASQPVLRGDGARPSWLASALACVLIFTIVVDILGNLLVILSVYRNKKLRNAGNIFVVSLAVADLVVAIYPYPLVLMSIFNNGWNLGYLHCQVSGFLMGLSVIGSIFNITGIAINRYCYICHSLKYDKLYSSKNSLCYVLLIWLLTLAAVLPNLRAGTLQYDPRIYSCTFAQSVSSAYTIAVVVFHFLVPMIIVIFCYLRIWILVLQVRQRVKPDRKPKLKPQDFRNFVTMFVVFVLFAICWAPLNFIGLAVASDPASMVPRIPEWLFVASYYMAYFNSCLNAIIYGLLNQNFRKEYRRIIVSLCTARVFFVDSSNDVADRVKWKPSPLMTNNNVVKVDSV
Experiment: 2-[125I]-iodomelatonin competition binding, human MT1
property: Ki (nM)
Expressed in nM, but write only the number.

Query :: In one line, give reported Ki of the entry COc1ccc2cccc(C(CO)CNC(=O)CF)c2c1 (stereo not shown) .
Result :: 12.6

----------
Target: hMT2 (Homo sapiens, UniProt P49286)
Sequence (P49286 whole entry): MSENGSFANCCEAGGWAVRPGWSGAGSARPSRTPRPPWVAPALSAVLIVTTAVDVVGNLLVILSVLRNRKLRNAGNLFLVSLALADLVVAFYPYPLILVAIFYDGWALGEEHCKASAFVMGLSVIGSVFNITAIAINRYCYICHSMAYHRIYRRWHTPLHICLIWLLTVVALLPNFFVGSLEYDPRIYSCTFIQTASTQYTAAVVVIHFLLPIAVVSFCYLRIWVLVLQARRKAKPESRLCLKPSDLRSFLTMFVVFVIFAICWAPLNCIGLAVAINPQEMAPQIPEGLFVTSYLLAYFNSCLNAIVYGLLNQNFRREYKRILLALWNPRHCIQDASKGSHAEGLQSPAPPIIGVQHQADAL
Experiment: 2-[125I]-iodomelatonin competition binding, human MT2
Conditions: membranes from stably transfected CHO cells; radioligand 2-[125I]-iodomelatonin; read-out: hMT2 (converted)
Note to self: Ki under 10 nM means 1 (yes), ties and anything higher get 0 (no).

Query :: State whether 10 nM exceeds Ki recorded for COCC(CNC(C)=O)c1cccc2ccc(OC)cc12 (stereo not drawn) [S73893] .
Result :: 1 (yes)

Query :: State whether 10 nM exceeds Ki recorded for COc1ccc2[nH]cc(CCNC(C)=O)c2c1I [4-Iodomelatonin] .
Result :: 0 (no)

Query :: State whether 10 nM exceeds Ki recorded for CCC(=O)N[C@@H]1Cc2ccccc2[C@H](c2ccccc2)C1 [4P-PDOT] .
Result :: 1 (yes)

Query :: State whether 10 nM exceeds Ki recorded for COc1ccc2ncn(CCNC(C)=O)c2c1 [S21278] .
Result :: 0 (no)

Query :: State whether 10 nM exceeds Ki recorded for CC(=O)NCCc1c(Cc2ccccc2)[nH]c2ccccc12 [Luzindole, N-acetyl-2-benzyltryptamine] .
Result :: 0 (no)

Query :: State whether 10 nM exceeds Ki recorded for O=C(NCCc1cccc2ccccc12)C1CCC1 [S20928] .
Result :: 0 (no)

Query :: State whether 10 nM exceeds Ki recorded for COc1ccc(CCN(C)CCCC(C#N)(c2cc(OC)c(OC)c(OC)c2)C(C)C)cc1OC (stereo not drawn) [D600, methoxyverapamil] .
Result :: 0 (no)

Query :: State whether 10 nM exceeds Ki recorded for COc1cc2c(CCNC(C)=O)c[nH]c2cc1I [6-Iodomelatonin] .
Result :: 1 (yes)

----------
Biological target: G. gallus Mel1c receptor (Gallus gallus, UniProt P49288)
Construct: expressed in transfected cells; host or cells: COS7 (transient nucleofection, pCIneo vector)
Sequence (P49288 whole entry): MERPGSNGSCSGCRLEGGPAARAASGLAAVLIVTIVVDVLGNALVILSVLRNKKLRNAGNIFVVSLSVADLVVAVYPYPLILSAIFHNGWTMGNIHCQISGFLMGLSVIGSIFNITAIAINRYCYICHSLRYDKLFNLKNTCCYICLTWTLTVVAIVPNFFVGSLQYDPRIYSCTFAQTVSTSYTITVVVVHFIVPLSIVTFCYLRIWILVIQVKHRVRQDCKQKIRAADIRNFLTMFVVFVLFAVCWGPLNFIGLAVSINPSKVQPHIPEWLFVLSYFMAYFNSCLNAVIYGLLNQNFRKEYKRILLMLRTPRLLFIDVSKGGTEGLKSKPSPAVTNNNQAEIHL
Assay: 2-[125I]-iodomelatonin competition binding, transiently transfected COS7 cells, chicken Mel1c
For each entry below, report its Ki value.
Expressed in nM, but write only the number.

Query :: In one line, give reported Ki of the entry CCC(=O)N[C@@H]1Cc2ccccc2[C@H](c2ccccc2)C1 .
Result :: 398

Query :: In one line, give reported Ki of the entry CC(=O)NCCc1c(Cc2ccccc2)[nH]c2ccccc12 .
Result :: 3980

----------
Target: X. laevis Mel1c receptor (Xenopus laevis, UniProt P49219)
Construct: expressed in transfected cells; host or cells: COS7 (transient nucleofection, pCIneo vector)
Sequence (P49219 1-354 isoform P49219-2): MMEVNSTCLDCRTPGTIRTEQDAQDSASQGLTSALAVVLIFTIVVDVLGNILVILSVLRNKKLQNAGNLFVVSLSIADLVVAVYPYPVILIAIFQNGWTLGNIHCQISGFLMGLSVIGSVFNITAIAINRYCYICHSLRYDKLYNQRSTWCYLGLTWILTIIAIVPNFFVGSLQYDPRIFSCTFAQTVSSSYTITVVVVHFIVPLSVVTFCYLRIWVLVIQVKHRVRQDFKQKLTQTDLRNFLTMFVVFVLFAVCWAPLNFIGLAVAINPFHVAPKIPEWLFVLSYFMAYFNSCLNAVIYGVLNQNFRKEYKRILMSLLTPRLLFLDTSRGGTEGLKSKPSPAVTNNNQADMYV
Assay: 2-[125I]-iodomelatonin competition binding, transiently transfected COS7 cells, Xenopus Mel1c
Settings: COS7 cells transiently transfected with Mel1c gene; radioligand 2-[125I]-iodomelatonin; two transfections, triplicate; read-out: pKi Xenopus laevis (converted)
Note to self: Ki under 100 nM means Satisfied, ties and anything higher get Not satisfied.

Query :: State whether 100 nM exceeds Ki recorded for CCC(=O)N[C@@H]1Cc2ccccc2[C@H](c2ccccc2)C1 .
Result :: Not satisfied

Query :: State whether 100 nM exceeds Ki recorded for COc1ccc2[nH]cc(CCNC(C)=O)c2c1 .
Result :: Satisfied

Query :: State whether 100 nM exceeds Ki recorded for CC(=O)NCCc1c(Cc2ccccc2)[nH]c2ccccc12 .
Result :: Not satisfied

Query :: State whether 100 nM exceeds Ki recorded for COc1ccc2cccc(CCNC(C)=O)c2c1 .
Result :: Satisfied

----------
Target: Platypus Mel1C (Ornithorhynchus anatinus)
Sequence (A0A2P1K6N2 1-349): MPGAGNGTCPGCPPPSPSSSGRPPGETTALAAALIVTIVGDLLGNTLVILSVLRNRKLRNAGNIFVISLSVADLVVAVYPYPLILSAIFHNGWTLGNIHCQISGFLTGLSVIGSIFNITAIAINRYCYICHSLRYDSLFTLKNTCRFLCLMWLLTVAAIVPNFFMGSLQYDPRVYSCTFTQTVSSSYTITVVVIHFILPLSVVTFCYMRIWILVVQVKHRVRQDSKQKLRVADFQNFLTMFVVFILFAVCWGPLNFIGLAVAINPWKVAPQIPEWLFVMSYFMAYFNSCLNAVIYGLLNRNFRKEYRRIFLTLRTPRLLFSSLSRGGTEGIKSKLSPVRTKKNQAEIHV
Assay: 2-[125I]-iodomelatonin competition binding, membranes from stably transfected CHO cells, platypus Mel1c
Settings: affinity of platypus Mel1c for melatonin, abstract statement, 'in the 1 nM range'
property: Ki

Query :: Under Platypus Mel1C (Ornithorhynchus anatinus): report Ki of COc1ccc2[nH]cc(CCNC(C)=O)c2c1 [Melatonin] .
Result :: ~1 nM

----------
For each entry below, report its Ki value.
Biological target: Xenopus Mel1C (Xenopus laevis)
Construct: expressed in transfected cells
Sequence (P49219 whole entry): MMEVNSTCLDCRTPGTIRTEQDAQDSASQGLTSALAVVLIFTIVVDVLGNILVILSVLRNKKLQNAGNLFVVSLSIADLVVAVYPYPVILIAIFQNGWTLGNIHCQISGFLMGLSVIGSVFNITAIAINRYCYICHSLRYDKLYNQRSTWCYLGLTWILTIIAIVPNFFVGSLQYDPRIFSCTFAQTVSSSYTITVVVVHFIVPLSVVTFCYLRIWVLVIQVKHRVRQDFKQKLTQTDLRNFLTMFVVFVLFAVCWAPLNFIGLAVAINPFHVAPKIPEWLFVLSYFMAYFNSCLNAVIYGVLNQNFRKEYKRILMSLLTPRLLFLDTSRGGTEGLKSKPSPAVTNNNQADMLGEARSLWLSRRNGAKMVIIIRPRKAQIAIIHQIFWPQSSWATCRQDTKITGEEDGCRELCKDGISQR
Experiment: 2-[125I]-iodomelatonin competition binding, membranes from stably transfected CHO cells, Xenopus Mel1c
Conditions: radioligand 2-[125I]-iodomelatonin
Expressed in nM, but write only the number.

Query :: In one line, give reported Ki of the entry O=C(NCCc1cccc2ccccc12)C1CCC1 .
Result :: 1260

Query :: In one line, give reported Ki of the entry CCc1ccc2scc(CCNC(C)=O)c2c1 .
Result :: 126

Query :: In one line, give reported Ki of the entry COc1ccc2cccc(CCNC(C)=O)c2c1 .
Result :: 0.794

Query :: In one line, give reported Ki of the entry COc1ccc2[nH]cc(CCNC(C)=O)c2c1 .
Result :: 2

Query :: In one line, give reported Ki of the entry COc1cc2c(CCNC(C)=O)c(I)[nH]c2cc1[N+](=O)[O-] .
Result :: 2.51

Query :: In one line, give reported Ki of the entry COc1ccc2ncn(CCNC(C)=O)c2c1 .
Result :: 1580

Query :: In one line, give reported Ki of the entry COc1ccc(CCN(C)CCCC(C#N)(c2cc(OC)c(OC)c(OC)c2)C(C)C)cc1OC (centres unmarked) .
Result :: 2000

Query :: In one line, give reported Ki of the entry COc1ccc2[nH]cc(CCNC(C)=O)c2c1I .
Result :: 251

Query :: In one line, give reported Ki of the entry COc1ccc2cccc(C(CO)CNC(=O)CF)c2c1 (centres unmarked) .
Result :: 15.8

Query :: In one line, give reported Ki of the entry COc1cc2c(CCNC(C)=O)c[nH]c2cc1I .
Result :: 7.94

Query :: In one line, give reported Ki of the entry COCC(CNC(C)=O)c1cccc2ccc(OC)cc12 (centres unmarked) .
Result :: 39.8

Query :: In one line, give reported Ki of the entry CCC(=O)N[C@@H]1Cc2ccccc2[C@H](c2ccccc2)C1 .
Result :: 794

Query :: In one line, give reported Ki of the entry CC(=O)NCCc1c(Cc2ccccc2)[nH]c2ccccc12 .
Result :: 2510

Query :: In one line, give reported Ki of the entry COc1ccc2[nH]cc(CCNC(=O)CI)c2c1 .
Result :: 0.501
